Target: recombinant cGAS (aa147-522) (Homo sapiens, UniProt Q8N884)
Construct: recombinant cGAS (aa147-522); His6-SUMO (N, cleaved yes)
Sequence (Q8N884 147-522): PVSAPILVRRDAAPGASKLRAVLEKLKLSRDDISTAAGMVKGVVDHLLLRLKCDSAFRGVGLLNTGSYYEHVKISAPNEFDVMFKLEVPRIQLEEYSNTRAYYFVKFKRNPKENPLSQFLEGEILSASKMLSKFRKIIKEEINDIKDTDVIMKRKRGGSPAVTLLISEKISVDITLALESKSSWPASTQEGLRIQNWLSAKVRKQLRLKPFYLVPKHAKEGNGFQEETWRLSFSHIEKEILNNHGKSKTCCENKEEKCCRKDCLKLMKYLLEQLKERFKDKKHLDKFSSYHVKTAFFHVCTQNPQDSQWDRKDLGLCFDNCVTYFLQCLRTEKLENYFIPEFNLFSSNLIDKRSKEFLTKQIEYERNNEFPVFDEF
Assay: In vitro assay for inhibition of cGAS activity (ATP consumption, Kinase Glo)
Details: 37° C. 20 minutes, read-out: Activity (Inhibition of cGAS enzyme activity in vitro, IC50)
Would you kindly list IC50 for each of these molecules?

// IC50 lookup, key: Cc1ncc(COc2cc(/C=C3\SC(=O)N(C)C3=O)c(Br)cc2O)cn1 [Ex186]
500 to 10000 nM

What would you report for "Nc1ncc(COc2cc(/C=C3\Sc4ncccc4C3=O)c(Br)cc2O)c(C(F)(F)F)n1" ?
≤ 500 nM

What would you report for "CN1CCC(COc2cc(/C=C3\SC(=O)N(C)C3=O)c(Br)cc2O)CC1" ?
500 to 10000 nM

What would you report for "O=C1/C(=C/c2cc3nn[nH]c3cc2Br)Sc2ncccc21" ?
≤ 500 nM

What would you report for "CN1C(=O)S/C(=C\c2cc(OCc3cnc(N4CCOCC4)nc3)c(O)cc2Br)C1=O" ?
≥ 10000 nM

What would you report for "COc1nc(N)ncc1COc1cc(/C=C2\SC(=O)N(C)C2=O)c(Br)cc1O" ?
500 to 10000 nM

What would you report for "CN1C(=O)S/C(=C\c2cc(OCc3cnc(-n4cccn4)nc3)c(O)cc2Br)C1=O" ?
500 to 10000 nM

What would you report for "CNc1ncc(COc2cc(/C=C3\Sc4ncccc4C3=O)c(Br)cc2O)cn1" ?
≤ 500 nM

What would you report for "COc1cc(/C=C2\Sc3ncccc3C2=O)c(Br)c(F)c1O" ?
≤ 500 nM

What would you report for "O=C1NC(=O)/C(=C/c2ccncc2)N1" ?
500 to 10000 nM

What would you report for "CN1C(=O)S/C(=C\c2cc(OCc3ccc(NC(=O)c4ccncc4)nc3)c(O)cc2Br)C1=O" ?
≤ 500 nM

What would you report for "COc1cc(/C=C2\SC(=O)N(C)C2=O)c(Br)c(F)c1O" ?
≤ 500 nM

What would you report for "CN1C(=O)S/C(=C\c2cc(OCc3ccc(NC(=O)c4ccccn4)nc3)c(O)cc2Br)C1=O" ?
500 to 10000 nM

What would you report for "CN1C(=O)S/C(=C\c2cc(OCc3cncnc3)c(O)cc2Br)C1=O" ?
≤ 500 nM

What would you report for "COc1cc(/C=C2\Sc3ncccc3C2=O)c(Br)c(Br)c1O" ?
500 to 10000 nM

What would you report for "COc1cc(/C=C2\SC(=O)N(C)C2=O)c(Br)cc1Oc1cnc(NCc2cccnc2)s1" ?
500 to 10000 nM

What would you report for CN1C(=O)S/C(=C\c2cc(OCc3cnc([S+](C)[O-])nc3)c(O)cc2Br)C1=O (centres unmarked) ?
≤ 500 nM

What would you report for "O=C1/C(=C/c2cc(OCc3cnc(NCc4cccnc4)nc3)c(O)cc2Br)Sc2ncccc21" ?
≤ 500 nM

What would you report for "COc1cc(/C=C2\SC(=O)N(C)C2=O)c(Br)cc1Oc1ccncc1" ?
500 to 10000 nM

What would you report for "CN1C(=O)S/C(=C\c2cc(OCc3cnc(Cl)nc3)c(O)cc2Br)C1=O" ?
≤ 500 nM

What would you report for "COc1cc(/C=C2\SC(=O)N(C)C2=O)c(Br)cc1Oc1ccnc2ccccc12" ?
500 to 10000 nM

What would you report for "CN1C(=O)S/C(=C\c2cc(OCc3cn(-c4ccccc4)nn3)c(O)cc2Br)C1=O" ?
≥ 10000 nM

What would you report for "CC(C)CNc1ncc(COc2cc(/C=C3\SC(=O)N(C)C3=O)c(Br)cc2O)cn1" ?
500 to 10000 nM

What would you report for "CN1C(=O)S/C(=C\c2cc(OCC3CCN(C(=O)c4ccccc4)CC3)c(O)cc2Br)C1=O" ?
500 to 10000 nM

What would you report for "CN1C(=O)S/C(=C\c2cc(OCc3cnc(N4CCNCC4)nc3)c(O)cc2Br)C1=O" ?
≤ 500 nM

What would you report for "CN1C(=O)S/C(=C\c2cc(OCc3cnc(N)nc3C(F)(F)F)c(O)cc2Br)C1=O" ?
≤ 500 nM
